meta.source: paper PMC6412895

Assay Endpoint: melting point

I am curious: what melting point value has been reported for "Cc1ccccc1NC(=O)Cc1csc2nc3ccccc3n12" ? 83 to 85 °C

I am curious: what melting point value has been reported for "O=C(Cc1csc2nc3ccccc3n12)Nc1ccc(Br)cc1" ? 107 to 109 °C

I am curious: what melting point value has been reported for "O=C(Cc1csc2nc3ccccc3n12)Nc1cc(F)cc(F)c1" ? 101 to 103 °C

I am curious: what melting point value has been reported for "O=C(Cc1csc2nc3ccccc3n12)Nc1cccc2ccccc12" ? 136 to 138 °C

Attention now turns to another entry.
I am curious: what melting point value has been reported for "O=C(Cc1csc2nc3ccccc3n12)Nc1ccccc1" ? 123 to 125 °C

* * *

This listing pairs compounds with measured pIC50.
system: HeLa cells; test: MTT anti-proliferative assay, HeLa; format: cell-based, human; conditions: Homo sapiens, HeLa, 24 h incubation, EGFR high-expressed cell line
pIC50: −log10 of the molar value.

See these solved cases before continuing.
Notebook entry, HeLa cells assay: pIC50 of O=C(Cc1csc2nc3ccccc3n12)Nc1cccc([N+](=O)[O-])c1 [Compound D06] = ? < 4.00

Notebook entry, HeLa cells assay: pIC50 of C=CCOc1ccc(NC(=O)Cc2csc3nc4ccccc4n23)cc1 [Compound D05] = ? < 4.00

Notebook entry, HeLa cells assay: pIC50 of O=C(Cc1csc2nc3ccccc3n12)Nc1ccccc1 [Compound D01] = ? < 4.00

Notebook entry, HeLa cells assay: pIC50 of O=C(Cc1csc2nc3ccccc3n12)Nc1ccc(Cl)c(C(F)(F)F)c1 [Compound D10] = ? < 4.00

Notebook entry, HeLa cells assay: pIC50 of Cc1ccccc1NC(=O)Cc1csc2nc3ccccc3n12 [Compound D15] = ? < 4.00

---
Notebook entry, HeLa cells assay: pIC50 of O=C(Cc1csc2nc3ccccc3n12)Nc1cccc(O)c1 [Compound D03] = ? < 4.00

Notebook entry, HeLa cells assay: pIC50 of O=C(Cc1csc2nc3ccccc3n12)Nc1ccc(Br)c(F)c1 [Compound D11] = ? < 4.00

* * *

Assay Endpoint: melting point

See these solved cases before continuing.
I am curious: what melting point value has been reported for "O=C(Cc1csc2nc3ccccc3n12)Nc1ccc([N+](=O)[O-])cc1" ? 99 to 101 °C

I am curious: what melting point value has been reported for "O=C(Cc1csc2nc3ccccc3n12)Nc1ccc(O)cc1" ? 101 to 103 °C

I am curious: what melting point value has been reported for "O=C(Cc1csc2nc3ccccc3n12)Nc1ccc(Cl)cc1" ? 151 to 153 °C

I am curious: what melting point value has been reported for "O=C(Cc1csc2nc3ccccc3n12)Nc1ccccc1O" ? 121 to 123 °C

I am curious: what melting point value has been reported for "O=C(Cc1csc2nc3ccccc3n12)Nc1ccc(Br)c(F)c1" ? 151 to 153 °C

---
I am curious: what melting point value has been reported for "O=C(Cc1csc2nc3ccccc3n12)Nc1cccc([N+](=O)[O-])c1" ? 132 to 134 °C

* * *

test system: HUVEC cells; assay: MTT cell toxicity assay, HUVEC; assay type: cell-based; settings: HUVEC, 24 h incubation, human normal cells
pIC50: −log10 of the molar value.
This listing pairs compounds with measured pIC50.

See these solved cases before continuing.
Notebook entry, HUVEC cells assay: pIC50 of "O=C(Cc1csc2nc3ccccc3n12)Nc1cc(F)cc(F)c1" = ? < 4.00

Notebook entry, HUVEC cells assay: pIC50 of "O=C(Cc1csc2nc3ccccc3n12)Nc1ccc(Cl)cc1Cl" = ? < 4.00

Notebook entry, HUVEC cells assay: pIC50 of "O=C(Cc1csc2nc3ccccc3n12)Nc1ccc(Cl)cc1" = ? < 4.00

Notebook entry, HUVEC cells assay: pIC50 of "C=CCOc1ccc(NC(=O)Cc2csc3nc4ccccc4n23)cc1" = ? < 4.00

Notebook entry, HUVEC cells assay: pIC50 of "O=C(Cc1csc2nc3ccccc3n12)Nc1cccc(O)c1" = ? < 4.00

Notebook entry, HUVEC cells assay: pIC50 of "O=C(Cc1csc2nc3ccccc3n12)Nc1ccc(Br)c(F)c1" = ? < 4.00

---
Notebook entry, HUVEC cells assay: pIC50 of "O=C(Cc1csc2nc3ccccc3n12)Nc1cccc([N+](=O)[O-])c1" = ? < 4.00
